Test system: NIH/3T3 fibroblast cells
Test: MTT assay on non-malignant fibroblasts (selectivity)
Type: cell-based, murine
Conditions: Mus musculus, NIH3T3; NIH/3T3, 10 μM, 72 h; read-out: Growth inhibition (%) ± SEM
Below: a set of entries, each annotated with reported inhibition at 10 µM.

### Prompt Using the record for COC(=O)[C@]1(C)CCC[C@@]2(C)[C@@H]3CC[C@@]4(Cn5cc(Cc6ccccc6)nn5)C[C@]3(CC[C@@H]21)C[C@H]4O [Compound 36] , report its inhibition at 10 µM.
### Response < 20%

### Prompt Using the record for CC[C@H](N[C@@H]1C[C@]23CC[C@H]4[C@@](C)(CCC[C@@]4(C)C(=O)OC)[C@@H]2CC[C@@]1(CO)C3)c1ccccc1 [Compound 11] , report its inhibition at 10 µM.
### Response 22.2%

### Prompt Using the record for CC[C@H](NC[C@@]12CC[C@@H]3[C@@](CC[C@H]4[C@@]3(C)CCC[C@@]4(C)C(=O)OC)(C[C@H]1O)C2)c1ccccc1 [Compound 25] , report its inhibition at 10 µM.
### Response < 20%

Origin of values: paper PMC10745768
